src = the supplement of paper PMC11061612

tested on: UM-UC-3 (Bladder Carcinoma); assay: combination Emax (second highest fraction inhibited in the dose matrix, 72 h); higher = more inhibition; extreme values may be limits of the assay
measure: combination Emax
Reply with the value as a number alone.

Before answering, review these 3 worked examples.
COc1cccc(OCCCN)c1-c1cc(Nc2cnc(C#N)cn2)n[nH]1 [Prexasertib] + CN(C)CCCOc1ccc(-c2ccc3ncc4c(c3c2)n(C2CCOCC2)c(=O)n4C)cn1 [AZD0156] (first compound max 1 µM, 7x7, partner max 1 µM)	0.537
COc1nnc2ccc(N3CCC(c4ccc(OCCN5CCN(C)C(=O)[C@H]5C)cc4)CC3)nn12 [AZD5153] + Cn1cnc2c(F)c(Nc3ccc(Br)cc3Cl)c(C(=O)NOCCO)cc21 [Selumetinib] (first compound max 1 µM, 7x7, partner max 10 µM)	0.527
Cn1cnc2c(F)c(Nc3ccc(Br)cc3Cl)c(C(=O)NOCCO)cc21 [Selumetinib] + C[C@@H]1COCCN1C2=NC(=NC(=C2)C3(CC3)[S@](=N)(=O)C)C4=C5C=CNC5=NC=C4 [AZD6738] (first compound max 10 µM, 7x7, partner max 10 µM)	0.312

Shifting focus to the molecule that follows.
## Input So what does the record say about combination Emax for NC1(C(=O)N[C@@H](CCO)c2ccc(Cl)cc2)CCN(c2ncnc3[nH]ccc23)CC1 [Capivasertib] + CC(C)n1c(=O)n(C)c2cnc3cc(F)c(-c4ccc(OCCCN5CCCCC5)nc4)cc3c21 [AZD1390] (first compound max 10 µM, 7x7, partner max 0.3 µM) ?
## Output 0.311

====

test system: B-CPAP (Thyroid Gland Carcinoma); assay: Bliss excess, mean over the matrix (fraction); higher = more synergy;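 further: after 72 h of two-drug dosing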
Reported Bliss excess is given for each of the following compounds.

CN(C)CCCOc1ccc(-c2ccc3ncc4c(c3c2)n(C2CCOCC2)c(=O)n4C)cn1 [AZD0156] + C=CCn1c(=O)c2cnc(Nc3ccc(N4CCN(C)CC4)cc3)nc2n1-c1cccc(C(C)(C)O)n1 [AZD1775] (first compound max 1 µM, partner max 1 µM)	-0.0255
Cc1cc2ncnn2cc1Nc1ncc2c(n1)n(C1CCOCC1)c(=O)n2C [AZD7648] + O=C(c1cc(Cc2n[nH]c(=O)c3ccccc23)ccc1F)N1CCN(C(=O)C2CC2)CC1 [Olaparib] (first compound max 10 µM, 7x7, partner max 10 µM)	-0.0034
COc1cccc(OCCCN)c1-c1cc(Nc2cnc(C#N)cn2)n[nH]1 [Prexasertib] + Cc1cc2ncnn2cc1Nc1ncc2c(n1)n(C1CCOCC1)c(=O)n2C [AZD7648] (first compound max 1 µM, 7x7, partner max 10 µM)	0.0049

## Input So what does the record say about Bliss excess for CC(=O)Nc1cccc(-n2c(=O)n(C3CC3)c(=O)c3c(Nc4ccc(I)cc4F)n(C)c(=O)c(C)c32)c1 [Trametinib] + Cc1nc(-c2cn3c(n2)-c2ccc(-c4cnn(C(C)(C)C(N)=O)c4)cc2OCC3)n(C(C)C)n1 [Taselisib] (first compound max 1 µM, 7x7, partner max 10 µM) ?
## Output 0.141

## Input So what does the record say about Bliss excess for Cc1c2c(nn1C)CSCc1cc(n(C)n1)CSc1cc(c3ccccc3c1)OCCCc1c(C(=O)O)n(C)c3c-2c(Cl)ccc13 [AZD5991] + CC1(C)CCC(CN2CCN(c3ccc(C(=O)NS(=O)(=O)c4ccc(NCC5CCOCC5)c([N+](=O)[O-])c4)c(Oc4cnc5[nH]ccc5c4)c3)CC2)=C(c2ccc(Cl)cc2)C1 [Venetoclax] (first compound max 1 µM, 7x7, partner max 1 µM) ?
## Output -0.0306

## Input So what does the record say about Bliss excess for CC1(C)CCC(CN2CCN(c3ccc(C(=O)NS(=O)(=O)c4ccc(NCC5CCOCC5)c([N+](=O)[O-])c4)c(Oc4cnc5[nH]ccc5c4)c3)CC2)=C(c2ccc(Cl)cc2)C1 [Venetoclax] + C[C@@H]1COCCN1C2=NC(=NC(=C2)C3(CC3)[S@](=N)(=O)C)C4=C5C=CNC5=NC=C4 [AZD6738] (first compound max 1 µM, 7x7, partner max 10 µM) ?
## Output -0.0136

## Input So what does the record say about Bliss excess for COc1cccc(OCCCN)c1-c1cc(Nc2cnc(C#N)cn2)n[nH]1 [Prexasertib] + C=CCn1c(=O)c2cnc(Nc3ccc(N4CCN(C)CC4)cc3)nc2n1-c1cccc(C(C)(C)O)n1 [AZD1775] (first compound max 1 µM, partner max 1 µM) ?
## Output 0.154

====

system: SNU-5 (Gastric Carcinoma); experiment: combination Emax (second highest fraction inhibited in the dose matrix, 72 h); higher = more inhibition; extreme values may be limits of the assay
measure: combination Emax
Reply with the value as a number alone.

Before answering, review these 8 worked examples.
COc1nnc2ccc(N3CCC(c4ccc(OCCN5CCN(C)C(=O)[C@H]5C)cc4)CC3)nn12 [AZD5153] + CN(CC[C@H](CSC1=CC=CC=C1)NC2=C(C=C(C=C2)S(=O)(=O)NC(=O)C3=CC=C(C=C3)N4CCC(CC4)[C@H](C5=CC=CC=C5C6=CC=C(C=C6)Cl)O)S(=O)(=O)C(F)(F)F)CCO [AZD4320] (first compound max 1 µM, 7x7, partner max 1 µM)	0.506
CC1(C)CCC(CN2CCN(c3ccc(C(=O)NS(=O)(=O)c4ccc(NCC5CCOCC5)c([N+](=O)[O-])c4)c(Oc4cnc5[nH]ccc5c4)c3)CC2)=C(c2ccc(Cl)cc2)C1 [Venetoclax] + C[C@@H]1COCCN1C2=NC(=NC(=C2)C3(CC3)[S@](=N)(=O)C)C4=C5C=CNC5=NC=C4 [AZD6738] (first compound max 1 µM, 7x7, partner max 10 µM)	0.934
NC1(C(=O)N[C@@H](CCO)c2ccc(Cl)cc2)CCN(c2ncnc3[nH]ccc23)CC1 [Capivasertib] + C[C@@H]1COCCN1C2=NC(=NC(=C2)C3(CC3)[S@](=N)(=O)C)C4=C5C=CNC5=NC=C4 [AZD6738] (first compound max 10 µM, 7x7, partner max 10 µM)	0.919
CN(CCO)CC[C@H](CSc1ccccc1)Nc1ccc(S(=O)(=O)NC(=O)c2ccc(N3CCC([C@@H](O)c4ccccc4-c4ccc(Cl)cc4)CC3)cc2)cc1S(=O)(=O)C(F)(F)F [AZD4320] + CN(C)CCCOc1ccc(-c2ccc3ncc4c(c3c2)n(C2CCOCC2)c(=O)n4C)cn1 [AZD0156] (first compound max 1 µM, 7x7, partner max 1 µM)	0.245
Cc1nc(Nc2ncc(C(=O)Nc3c(C)cccc3Cl)s2)cc(N2CCN(CCO)CC2)n1 [Dasatinib] + CC(=O)Nc1cccc(-n2c(=O)n(C3CC3)c(=O)c3c(Nc4ccc(I)cc4F)n(C)c(=O)c(C)c32)c1 [Trametinib] (first compound max 2 µM, 7x7, partner max 1 µM)	0.654
CN(C)CCCOc1ccc(-c2ccc3ncc4c(c3c2)n(C2CCOCC2)c(=O)n4C)cn1 [AZD0156] + CCN(CCO)CCCOc1ccc2c(Nc3cc(CC(=O)Nc4cccc(F)c4)[nH]n3)ncnc2c1 [AZD2811] (first compound max 1 µM, 7x7, partner max 1 µM)	0.162
COc1cccc(OCCCN)c1-c1cc(Nc2cnc(C#N)cn2)n[nH]1 [Prexasertib] + Cc1cc2ncnn2cc1Nc1ncc2c(n1)n(C1CCOCC1)c(=O)n2C [AZD7648] (first compound max 1 µM, 7x7, partner max 10 µM)	0.983
COc1nnc2ccc(N3CCC(c4ccc(OCCN5CCN(C)C(=O)[C@H]5C)cc4)CC3)nn12 [AZD5153] + C[C@@H]1COCCN1C2=NC(=NC(=C2)C3(CC3)[S@](=N)(=O)C)C4=C5C=CNC5=NC=C4 [AZD6738] (first compound max 1 µM, 7x7, partner max 10 µM)	0.913

## Input So what does the record say about combination Emax for COc1nnc2ccc(N3CCC(c4ccc(OCCN5CCN(C)C(=O)[C@H]5C)cc4)CC3)nn12 [AZD5153] + CC1(C)CCC(CN2CCN(c3ccc(C(=O)NS(=O)(=O)c4ccc(NCC5CCOCC5)c([N+](=O)[O-])c4)c(Oc4cnc5[nH]ccc5c4)c3)CC2)=C(c2ccc(Cl)cc2)C1 [Venetoclax] (first compound max 1 µM, 7x7, partner max 1 µM) ?
## Output 0.469

## Input So what does the record say about combination Emax for COc1cccc(OCCCN)c1-c1cc(Nc2cnc(C#N)cn2)n[nH]1 [Prexasertib] + C=CCn1c(=O)c2cnc(Nc3ccc(N4CCN(C)CC4)cc3)nc2n1-c1cccc(C(C)(C)O)n1 [AZD1775] (first compound max 1 µM, partner max 1 µM) ?
## Output 0.969

## Input So what does the record say about combination Emax for CC1(C)CCC(CN2CCN(c3ccc(C(=O)NS(=O)(=O)c4ccc(NCC5CCOCC5)c([N+](=O)[O-])c4)c(Oc4cnc5[nH]ccc5c4)c3)CC2)=C(c2ccc(Cl)cc2)C1 [Venetoclax] + Cc1cc2ncnn2cc1Nc1ncc2c(n1)n(C1CCOCC1)c(=O)n2C [AZD7648] (first compound max 1 µM, 7x7, partner max 10 µM) ?
## Output 0.325

## Input So what does the record say about combination Emax for NC1(C(=O)N[C@@H](CCO)c2ccc(Cl)cc2)CCN(c2ncnc3[nH]ccc23)CC1 [Capivasertib] + CC(=O)c1c(C)c2cnc(Nc3ccc(N4CCNCC4)cn3)nc2n(C2CCCC2)c1=O [Palbociclib] (first compound max 10 µM, 7x7, partner max 10 µM) ?
## Output 0.379

## Input So what does the record say about combination Emax for NC1(C(=O)N[C@@H](CCO)c2ccc(Cl)cc2)CCN(c2ncnc3[nH]ccc23)CC1 [Capivasertib] + CC(C)n1c(=O)n(C)c2cnc3cc(F)c(-c4ccc(OCCCN5CCCCC5)nc4)cc3c21 [AZD1390] (first compound max 10 µM, 7x7, partner max 0.3 µM) ?
## Output 0.43
